Source: patent US5578725A

Biological target: δ opioid receptors (Mus musculus, UniProt P32300)
Sequence (P32300 whole entry): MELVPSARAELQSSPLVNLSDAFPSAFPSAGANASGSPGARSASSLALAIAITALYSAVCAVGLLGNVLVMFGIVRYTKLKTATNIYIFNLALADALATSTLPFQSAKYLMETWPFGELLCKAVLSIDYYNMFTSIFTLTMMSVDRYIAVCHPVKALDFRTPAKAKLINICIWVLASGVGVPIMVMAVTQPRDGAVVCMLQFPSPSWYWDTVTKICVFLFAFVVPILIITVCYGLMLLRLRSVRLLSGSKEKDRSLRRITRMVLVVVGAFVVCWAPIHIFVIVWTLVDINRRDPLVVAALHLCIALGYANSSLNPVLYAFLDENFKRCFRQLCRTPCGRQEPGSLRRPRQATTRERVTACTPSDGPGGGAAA
Experiment: Antagonism of DADLE (δ) in electrically stimulated mouse vas deferens (MVD) preparation
Settings: MVD, antagonist 100 nM, 15 min preincubation
Counter-ions that a name gives are not always drawn.
EXPERIMENTAL ENDPOINT: IC50 ratio DADLE(δ)
One number for each entry.

* O=C(O)CNC(=O)c1cccc2c3c([nH]c12)[C@@H]1Oc2c(O)ccc4c2[C@@]12CCN(CC1CC1)[C@H](C4)[C@]2(O)C3 [Compound 2, hydrochloride] | 32
* NCCCC[C@H](NC(=O)c1cccc2c3c([nH]c12)[C@@H]1Oc2c(O)ccc4c2[C@@]12CCN(CC1CC1)[C@H](C4)[C@]2(O)C3)C(=O)O [Compound 6, hydrochloride] | 20
* NCCC[C@H](NC(=O)c1cccc2c3c([nH]c12)[C@@H]1Oc2c(O)ccc4c2[C@@]12CCN(CC1CC1)[C@H](C4)[C@]2(O)C3)C(=O)O [Compound 4, hydrochloride] | 58
* N=C(N)NCCC[C@H](NC(=O)c1cccc2c3c([nH]c12)[C@@H]1Oc2c(O)ccc4c2[C@@]12CCN(CC1CC1)[C@H](C4)[C@]2(O)C3)C(=O)O [Compound 5, hydrochloride] | 31

Proceeding to the next molecule to report its IC50 ratio DADLE(δ).
Recorded IC50 ratio DADLE(δ) (molecule O=C(O)C[C@H](NC(=O)c1cccc2c3c([nH]c12)[C@@H]1Oc2c(O)ccc4c2[C@@]12CCN(CC1CC1)[C@H](C4)[C@]2(O)C3)C(=O)O [Compound 3, hydrochloride] ): 89
